Cmax for assorted compounds
test-description: Crossover bioavailability study IR vs MR1 vs MR2 capsules: PK
setup-conditions: plasma, following a single 8 mg dose of MR1 CX-8998
Just the number in nM, nothing appended.

test-smiles: C[C@@H](NC(=O)Cc1ccc(C(C)(C)O)cc1)c1ccc(OCC(F)(F)F)cn1
assay-endpoint: Cmax
result-units: nM
experimental-value: 94

API: the following record is the query input.
(Q) Need Cmax, item "C=C(C)c1ccc(CC(=O)N[C@H](C)c2ccc(OCC(F)(F)F)cn2)cc1"
(A) 121

* * *

test-description: 90-day oral toxicology in Beagle dogs
setup-conditions: female, beagle, dog, in vivo, po, 30 mg/kg/day
assay-endpoint: AUC (µM·h)
Just the number in µM·h, nothing appended.

(Q) Need AUC, item CC(C)c1ccc(CC(=O)N[C@H](C)c2ccc(OCC(F)(F)F)cn2)cc1 [CX-8998]
(A) 363

* * *

test-description: Phase 1 single-dose pharmacokinetics (PN001, PN002/Part I, PN003, PN005)
Format: in vivo, human
setup-conditions: male, human, plasma, oral, 1 mg, fasted; read-out: Cmax, mean
assay-endpoint: Cmax
Quick note: unit goes after the number.

(Q) Need Cmax, item "CC(C)c1ccc(CC(=O)N[C@H](C)c2ccc(OCC(F)(F)F)cn2)cc1"
(A) 104 nM

* * *

test-description: in vivo
setup-conditions: female, rat, po, 100 mg/kg
assay-endpoint: AUC (µM·h)
Just the number in µM·h, nothing appended.

molecule: CC(C(=O)O)c1ccc(CC(=O)N[C@H](C)c2ccc(OCC(F)(F)F)cn2)cc1 (stereo partly shown)
result-units: µM·h
AUC: 159

molecule: C[C@@H](NC(=O)Cc1ccc(C(C)(C)O)cc1)c1ccc(OCC(F)(F)F)cn1
result-units: µM·h
AUC: 567

molecule: CC(CO)c1ccc(CC(=O)N[C@H](C)c2ccc(OCC(F)(F)F)cn2)cc1 (stereo partly shown)
result-units: µM·h
AUC: 61.9

API: the following record is the query input.
(Q) Need AUC, item "C=C(C)c1ccc(CC(=O)N[C@H](C)c2ccc(OCC(F)(F)F)cn2)cc1"
(A) 231

* * *

test-description: Single-dose toxicokinetic study in dogs
Format: in vivo
setup-conditions: male, dog, plasma, po, 800 mg/kg
Tmax for assorted compounds
Just the number in h, nothing appended.

These solved cases illustrate the format of a correct answer.
compound: C[C@@H](NC(=O)Cc1ccc(C(C)(C)O)cc1)c1ccc(OCC(F)(F)F)cn1
assay-endpoint: Tmax
experimental-value: 8

compound: C=C(C)c1ccc(CC(=O)N[C@H](C)c2ccc(OCC(F)(F)F)cn2)cc1
assay-endpoint: Tmax
experimental-value: 8

(Q) Need Tmax, item CC(C(=O)O)c1ccc(CC(=O)N[C@H](C)c2ccc(OCC(F)(F)F)cn2)cc1 (stereo partly drawn)
(A) 24

* * *

test-description: in vivo
setup-conditions: female, rat, po, 100 mg/kg/day
assay-endpoint: AUC (µM·h)
Just the number in µM·h, nothing appended.

(Q) Need AUC, item CC(C)c1ccc(CC(=O)N[C@H](C)c2ccc(OCC(F)(F)F)cn2)cc1 [CX-8998]
(A) 94.6

* * *

Test system: patients with essential tremor
test-description: T-CALM: PK/PD, Cmin versus TETRAS-PS (Hill equation)
Type: in vivo, human
setup-conditions: Homo sapiens, TETRAS-PS
assay-endpoint: EC50

(Q) I'm curious: which EC50 was measured for "CC(C)c1ccc(CC(=O)N[C@H](C)c2ccc(OCC(F)(F)F)cn2)cc1" tested on patients with essential tremor?
(A) ~250 nM
